Sourced from paper PMC3145891

- Tested on: human platelets
- procedure text: Cell membrane permeability in washed human platelets
- Assay type: in vitro ADME
- measurement conditions: washed human platelets, 37°C, normally 20 min
I'd appreciate it if you marked entries yes when cNMP conc. inside platelets (% of external) is lower than 0.5% and no when it is not.

Record excerpt, results attached:
1) Nc1nc2c(nc(Br)n2[C@@H]2O[C@@H]3COP(=O)(O)O[C@H]3[C@H]2O)c(=O)[nH]1 [8-Br-cGMP] : no
2) Nc1nc2c(nc(Sc3ccc(Cl)cc3)n2C2O[C@@H]3COP(=O)(O)O[C@H]3[C@H]2O)c(=O)[nH]1 (stereo in doubt) [8-pCPT-cGMP] : no
3) O=c1c2nc(Br)n([C@@H]3O[C@@H]4COP(=O)(O)O[C@H]4[C@H]3O)c2nc2[nH]c(-c3ccccc3)cn12 [8-Br-PET-cGMP] : no

Moving on to the next compound.
Ask: Threshold test, cNMP conc. inside platelets (% of external) < 0.5%: Nc1ncnc2c1ncn2[C@H]1C[C@@H]2OP(=O)(O)OC[C@H]2O1 [2′-dcAMP]
Reply: yes
